biological target: His-tagged KRAS G12D protein (Homo sapiens, UniProt P01116, G12D); test: KRAS G12D TR-FRET assay (binding); details: biotinylated KRPep-2d substrate, GDP in assay buffer
Sequence (P01116 1-188 isoform P01116-2 G12D): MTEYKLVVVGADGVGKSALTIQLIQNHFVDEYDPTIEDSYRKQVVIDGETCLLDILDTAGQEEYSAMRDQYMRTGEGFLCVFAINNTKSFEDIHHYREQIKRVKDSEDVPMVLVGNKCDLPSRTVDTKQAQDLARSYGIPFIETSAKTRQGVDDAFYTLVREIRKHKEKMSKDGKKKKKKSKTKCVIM
METRIC: pIC50
Give bare numbers, as −log10 of the molar value.

Below: 5 compounds and their reported pIC50.
INSERT INTO measurements (compound, quantitative_result) VALUES
  ('CCc1c(F)ccc2cc(O)cc(-c3ncc4c(N5CCOCC(C(=O)NC)C5)nc(OC[C@@]56CCCN5C[C@H](F)C6)nc4c3F)c12 (single isomer, unassigned) [Example 44]', 7.59),
  ('CCc1c(F)ccc2cc(O)cc(-c3ncc4c(N5[C@@H]6CC[C@H]5COC6)nc(OC[C@@]56CCCN5C[C@H](F)C6)nc4c3F)c12 [Example 6]', 7.16),
  ('CCc1c(F)ccc2cc(O)cc(-c3ncc4c(N5CCCS(=O)(=O)C5)nc(OC[C@@]56CCCN5C[C@H](F)C6)nc4c3F)c12 [Example 62]', 9.00),
  ('CCc1c(F)ccc2cc(O)cc(-c3ncc4c(N5CC6CC5CS6(=O)=O)nc(OC[C@@]56CCCN5C[C@H](F)C6)nc4c3F)c12 (stereo partly shown) [Example 59]', 7.85),
  ('CCc1c(F)ccc2cc(O)cc(-c3ncc4c(N5CCOC6CC65)nc(OC[C@@]56CCCN5C[C@H](F)C6)nc4c3F)c12 (stereo partly shown) [Example 66]', 7.82);

Need pIC50 for each of these compounds.
1. C#Cc1cccc2cc(O)cc(-c3ncc4c(N5CCCOCC5)nc(OC[C@@H]5C[C@@H](F)CN5C)nc4c3F)c12 [Example 12]
2. CCc1cccc2cc(O)cc(-c3ncc4c(N5C[C@H]6COC[C@@H](C5)O6)nc(OC[C@@]56CCCN5C[C@H](F)C6)nc4c3F)c12 [Example 23]
3. CCc1cccc2cc(O)cc(-c3ncc4c(N5CCCOCC5)nc(OCC5(CN6CCOCC6)CC5)nc4c3F)c12 [Example 20]
4. Oc1cc(-c2ncc3c(N4CCCOCC4)nc(OCC45CCCN4CCC5)nc3c2F)c2ccccc2c1 [Example 13]
5. Oc1cc(-c2ncc3c(N4C[C@H]5COC[C@@H](C4)O5)nc(OC[C@@]45CCCN4C[C@H](F)C5)nc3c2F)c2c(F)c(F)ccc2c1 [Example 19]
6. CCc1cccc2cc(O)cc(-c3ncc4c(N5CCOC[C@@](C)(O)C5)nc(OC[C@@]56CCCN5C[C@H](F)C6)nc4c3F)c12 [Example 78]
7. CCc1c(F)ccc2cc(O)cc(-c3ncc4c(N5CCCSCC5)nc(OC[C@@]56CCCN5C[C@H](F)C6)nc4c3F)c12 [Example 5]

OUTPUT:
8.40
7.54
8.30
7.96
8.05
9.00
8.70

Need pIC50 for each of these compounds.
1. CCc1c(F)ccc2cc(O)cc(-c3ncc4c(N5CCOCC(=O)C5)nc(OCC56CCCN5CC(F)C6)nc4c3F)c12 (stereo not shown) [Example 67]
2. CCc1c(F)ccc2cc(O)cc(-c3ncc4c(N5CCOCC(C(N)=O)C5)nc(OC[C@@]56CCCN5C[C@H](F)C6)nc4c3F)c12 (single isomer, unassigned) [Example 47]
3. CCc1c(F)ccc2cc(O)cc(-c3ncc4c(N5CCCS(=O)(=O)CC5)nc(OC[C@@]56CCCN5C[C@H](F)C6)nc4c3F)c12 [Example 37]
4. CCc1c(F)ccc2cc(O)cc(-c3ncc4c(N5CCO[C@@H](COC)C5)nc(OC[C@@]56CCCN5C[C@H](F)C6)nc4c3F)c12 [Example 53]

OUTPUT:
1: 8.70; 2: 8.52; 3: 7.96; 4: 7.41

These entries and their values trace back to patent US20250122222A1.
